Origin of values: PubChem BioAssay (NCI)

- Test system: MCF7 breast
- method-summary: NCI tumour cell line growth inhibition, 48 h
Where a SMILES comes first, the peptide text is derived from it. [ ]: non-standard residue; d: D form. The star is where a group is joined. Lauroyl = CCCCCCCCCCCC(=O)*; Aib = CC(C)(N)C(=O)O; βAla = NCCC(=O)O
Please provide measured TGI for the entries that follow.
Number in µM, nothing else.

[ask] # TGI lookup, item CC1(C)[C@@H](O)CC[C@]2(C)[C@H]3CC[C@@H]4[C@H]5[C@H](C(=O)/C=C\c6ccccn6)CC[C@]5(O)CC[C@@]4(C)[C@]3(C)CC[C@@H]12
[reply] 4.54

[ask] // repeat for C=C(C=O)[C@@H]1CC[C@]2(CO)CC[C@]3(C)[C@H](CC[C@@H]4[C@@]5(C)CCCNC(C)(C)[C@@H]5CC[C@]43C)[C@@H]12 and report
[reply] 5.14

[ask] // repeat for CCCn1cnc2c(c1=N)C(c1ccc(Cl)cc1)c1sc3c(CC)cccc3c1O2 (centres undefined) and report
[reply] 11.7

[ask] // repeat for CCCCCCCCCCCC(=O)NC(C)(C)C(=O)N1CCCC1C(=O)NC(C)(C)C(=O)NC(C)(C)C(=O)N1CCCC1C(=O)NC(C)(C)C(=O)NC(C)(C)C(=O)N1CCCC1C(=O)NC(C)C(=O)NCCC(=O)NC(C)C(=O)NC(C)(C)C(=O)NC(C)(C)C(=O)NC(C)(C)C(=O)NCCC(=O)NC(C)(C)C(=O)NC(C)(C)C(=O)NC(C)(C)C(=O)NC(C)C(=O)NCCC(=O)O (centres undefined) (Lauroyl-[Aib]P[Aib][Aib]P[Aib][Aib]PA[βAla]A[Aib][Aib][Aib][βAla][Aib][Aib][Aib]A[βAla]-OH; configuration not given here) and report
[reply] 0.906
